# ASSAY DETAILS: physchem
# Assay type: physicochemical
# CONDITION PARAMETERS: 66% aqueous dimethylformamide
READOUT: pKa

Record request: pKa value, item CCC1OC(=O)CC(O)C(C)C(OC2OC(C)C(OC3CC(C)(O)C(O)C(C)O3)C(N(C)C)C2O)C(CC=O)CC(C)C(=O)C=CC(C)=CC1CO (stereo not shown)
~7.25

====

# ASSAY DETAILS: Acute toxicity of DMT in mice
# CONDITION PARAMETERS: mouse, in vivo, ip; males
READOUT: LD50

Record request: LD50 value, item CCC1OC(=O)CC(O)C(C)C(OC2OC(C)C(OC3CC(C)(O)C(O)C(C)O3)C(N(C)C)C2O)C(CC=O)CC(C)C(=O)C=CC(C)=CC1CO (stereo not shown) [DMT, 23-demycinosyltylosin]
721 mg/kg

====

# ASSAY DETAILS: Acute toxicity of DMT in mice
# CONDITION PARAMETERS: mouse, in vivo, po; females
READOUT: LD50

Record request: LD50 value, item CCC1OC(=O)CC(O)C(C)C(OC2OC(C)C(OC3CC(C)(O)C(O)C(C)O3)C(N(C)C)C2O)C(CC=O)CC(C)C(=O)C=CC(C)=CC1CO (stereo not shown) [DMT, 23-demycinosyltylosin]
> 5000 mg/kg

====

# ASSAY DETAILS: Acute toxicity of DMT in mice
# CONDITION PARAMETERS: mouse, in vivo, sc; females
READOUT: LD50 (mg/kg)
Reply with just the number (in mg/kg).

Record request: LD50 value, item CCC1OC(=O)CC(O)C(C)C(OC2OC(C)C(OC3CC(C)(O)C(O)C(C)O3)C(N(C)C)C2O)C(CC=O)CC(C)C(=O)C=CC(C)=CC1CO (stereo not shown) [DMT, 23-demycinosyltylosin]
5450

Where do the numbers come from? From patent US4419447A.
